test: physchem; details: phosphate buffered saline, pH 7.4

{"molecule": "Cc1ccc2[nH]c(C3CCCNC3)c(-c3ccncc3)c2c1 (stereo not drawn)", "solubility kinetic": "267 µM"}
{"molecule": "c1cncc(NCc2ccc(-c3cc4ccncc4cc3OC3CCNCC3)s2)c1", "solubility kinetic": "167 µM"}
{"molecule": "c1ccc(-c2csc(Nc3nc4cc5c(cc4s3)OCO5)n2)nc1", "solubility kinetic": "1 µM"}
{"molecule": "NC(=O)c1cc(-c2ccsc2)ccc1OCCOc1ccccc1", "solubility kinetic": "1 µM"}
{"molecule": "O=C(NCc1cc(Cl)cc(Cl)c1)c1c(C(F)(F)F)nc2ccccn12", "solubility kinetic": "1 µM"}
{"molecule": "CNc1nc(SCC(=O)N(C)Cc2ccc(Cl)s2)nc2ccccc12", "solubility kinetic": "56 µM"}
{"molecule": "COc1cc2ccccc2cc1C(=O)NCc1cccc(-c2ccccc2OC)c1", "solubility kinetic": "84 µM"}
{"molecule": "O=C(CCC1CCCCC1)Nc1cccc(-c2nnc(-c3ccco3)o2)c1", "solubility kinetic": "1 µM"}
{"molecule": "Cc1ccc2nc(C(F)(F)F)c(C(=O)NCc3cccs3)n2c1", "solubility kinetic": "17 µM"}
{"molecule": "COc1cc(CN2CCC3(C=Cc4ccccc43)CC2)cc2c1OCO2", "solubility kinetic": "121 µM"}
{"molecule": "Cc1cc(OCC(=O)NCc2ccccc2)c2cc(Br)ccc2n1", "solubility kinetic": "15 µM"}
{"molecule": "FC(F)(F)c1cc(SCc2ccccc2)nc(-c2ccccn2)n1", "solubility kinetic": "1 µM"}
{"molecule": "CCC(Sc1nc2ccccc2o1)C(=O)Nc1nccs1 (stereo not drawn)", "solubility kinetic": "105 µM"}
{"molecule": "CC1=Nc2ccccc2CN1CC(O)c1cc(Br)cs1 (stereo not drawn)", "solubility kinetic": "563 µM"}
{"molecule": "Cc1cc(NCCc2ccccc2)nc(NC(=N)Nc2ccc(Cl)cc2)n1", "solubility kinetic": "73 µM"}
{"molecule": "CC(C)(C)c1ccc(-c2nnc(SCC(=O)OC3CCCCC3)o2)cc1", "solubility kinetic": "1 µM"}
{"molecule": "CC(=O)NCCn1c(Sc2ccnc(N3CCN(c4ccncc4)CC3)n2)nnc1-c1ccccc1", "solubility kinetic": "135 µM"}
{"molecule": "Cc1ccc2nc(C(F)(F)F)c(C(=O)NCc3ccc4c(c3)OCO4)n2c1", "solubility kinetic": "22 µM"}
{"molecule": "O=C(N[C@@H](Cc1ccccc1)C(=O)Nc1ccccc1N1CCOCC1)c1cccs1", "solubility kinetic": "52 µM"}
{"molecule": "COc1cc(Cc2cnc(N)nc2N)c2cnccc2c1N(C)C", "solubility kinetic": "304 µM"}
{"molecule": "O=C(/C=C/c1ccccc1)N1CCN(Cc2cccc(OCc3ccccc3)c2)CC1", "solubility kinetic": "61 µM"}
{"molecule": "Cc1ccc2nc(C(F)(F)F)c(C(=O)NCc3cc(Cl)cc(Cl)c3)n2c1", "solubility kinetic": "1 µM"}
{"molecule": "Brc1c(-c2ccc3c(c2)OCO3)nc2ncccn12", "solubility kinetic": "219 µM"}

----------
# maps each entry to its logP
assay: physchem; settings: octanol/water
Description: GSK_TB: GSK in-house hydrophobicity assay (logP)

{"molecule": "COc1cc2ccccc2cc1C(=O)NCc1cccc(-c2ccccc2OC)c1", "logP": 7.58}
{"molecule": "c1ccc(-c2nnc(Sc3ccnc(N4CCN(c5ccncc5)CC4)n3)n2CCCN2CCOCC2)nc1", "logP": 3.22}
{"molecule": "O=C(c1cc2ccccc2o1)N1CCN(Cc2ccc3c(c2)OCO3)CC1", "logP": 5.83}
{"molecule": "Cl.O=C(c1ccco1)N(CCCn1ccnc1)c1nc2c(Cl)cccc2s1", "logP": 5.63}
{"molecule": "c1ccc(SCc2nn3c(-c4ccccc4)nnc3s2)cc1", "logP": 5.78}
{"molecule": "FC(F)(F)c1nnc2ccc(Cl)nn12", "logP": 3.1}
{"molecule": "c1csc(Cc2nn3c(-c4n[nH]c5c4CCC5)nnc3s2)c1", "logP": 3.48}
{"molecule": "Cn1ccnc1CNCCS(=O)(=O)c1cccc(Nc2ccc(-c3cccc(F)c3)cn2)c1", "logP": 4.62}
{"molecule": "O=C(/C=C/c1ccccc1)N1CCN(Cc2cccc(OCc3ccccc3)c2)CC1", "logP": 7.54}
{"molecule": "CNc1nc(SC)nc2ccsc12", "logP": 3.3}
{"molecule": "CCc1ccc(C2CC(C(F)(F)F)n3ncc(C(=O)NCc4cccs4)c3N2)cc1 (stereo unspecified)", "logP": 7.27}

----------
assay: physchem; conditions: buffer, pH 7.4
Description: GSK_TB: GSK in-house hydrophobicity assay at pH7.4 (logD)

{"molecular_string": "CCCOC(=O)COc1ccc2c(=O)c(-c3ccccc3OC)coc2c1", "logD": 6}
{"molecular_string": "CCOc1ccc(-c2nc(CNCCc3ccc(F)cc3)cs2)cc1.O=C(O)C(=O)O", "logD": 6.09}
{"molecular_string": "CN1CCN(c2ccc(C(F)(F)F)cc2NC(=O)c2ccccn2)CC1", "logD": 6.19}
{"molecular_string": "N#Cc1nc(-c2ccccc2F)oc1NCCc1ccccc1", "logD": 6.37}
{"molecular_string": "Cc1ccc2nc(C)c(-c3ccn(Cc4ccccc4)n3)n2c1", "logD": 5.16}
{"molecular_string": "O=C(/C=C/c1ccccc1)N1CCN(Cc2cccc(OCc3ccccc3)c2)CC1", "logD": 7.21}
{"molecular_string": "O=C(CCCSc1ccccc1)NNC(=O)c1cccs1", "logD": 3.67}
{"molecular_string": "CN(C)S(=O)(=O)c1ccc(C(=O)Nc2nnc(-c3ccc(Cl)s3)o2)cc1", "logD": 2.83}
{"molecular_string": "c1ccc(CCNc2cc(-c3ccccc3)nc3nncn23)cc1", "logD": 4.97}
{"molecular_string": "O=C(c1cc2c(s1)CCC2)N1CCN(Cc2ccc3c(c2)OCO3)CC1", "logD": 6.09}
{"molecular_string": "Nc1cc(OCc2ccccc2)ccc1Nc1ccccc1", "logD": 6.65}
{"molecular_string": "N=C(N)c1ccc(CCN2CCC(c3nc(COCC(F)(F)F)c(-c4ccc(F)cc4)o3)CC2)cc1.O=C(O)C(F)(F)F.O=C(O)C(F)(F)F", "logD": 3.76}
{"molecular_string": "Fc1ccccc1-c1noc(N2CCN(Cc3ccc4c(c3)OCO4)CC2)n1", "logD": 6.56}
{"molecular_string": "COc1ccc(CC(=O)Nc2c(-c3cccs3)nc3cc(C)ccn23)cc1", "logD": 3.95}
{"molecular_string": "C=CCNc1nc(SC)nc2ccccc12", "logD": 4.97}
{"molecular_string": "c1csc(-c2nnc(Sc3ccnc(N4CCN(c5ccncc5)CC4)n3)n2CCCN2CCOCC2)c1", "logD": 2.08}
{"molecular_string": "COc1ccc(-c2nc(-c3cccc(NC(=O)Cc4ccc(F)cc4)c3)no2)cc1OC", "logD": 6.37}
{"molecular_string": "CN1CCN(c2cc(-c3ccc(F)cc3)nc(-c3ccncc3)n2)CC1", "logD": 5.07}
{"molecular_string": "O=C(C=Cc1cccs1)N1CCN(Cc2ccc(Br)s2)CC1", "logD": 6.47}
{"molecular_string": "COc1ccccc1OCCCCn1c(C2CC2)nc2ccccc21", "logD": 5.63}
{"molecular_string": "CCCc1ccc(S(=O)(=O)Nc2ccc(CN3CCN(CC4CC4)CC3)cc2)cc1.O=C(O)C(F)(F)F.O=C(O)C(F)(F)F", "logD": 4.69}
{"molecular_string": "O=C(NCc1ccc(Oc2ccccc2)cc1)c1c(C(F)(F)F)nc2ccccn12", "logD": 6.28}

----------
experiment: physchem; details: phosphate buffered saline, pH 7.4

{"molecular_string": "Cc1nc2ccccn2c1C(=O)NCc1ccccc1", "unit_abbrev": "µM", "solubility kinetic": 403}
{"molecular_string": "O=C(C1CCN(c2nnc(-n3cccc3)s2)CC1)N1CCC(Cc2ccccc2)CC1", "unit_abbrev": "µM", "solubility kinetic": 1}
{"molecular_string": "O=C(Nc1nc(-c2ccccn2)cs1)c1cncn1-c1ccccc1", "unit_abbrev": "µM", "solubility kinetic": 118}
{"molecular_string": "Cl.O=C(c1ccco1)N(CCCn1ccnc1)c1nc2c(Cl)cccc2s1", "unit_abbrev": "µM", "solubility kinetic": 21}
{"molecular_string": "Br.Cc1ccccc1OCCCON1C(=N)N=C(N)NC1(C)C", "unit_abbrev": "µM", "solubility kinetic": 436}
{"molecular_string": "COc1ccc(-c2cncc(-c3cc(N4CCN(CCO)CC4)nc(-c4ccccc4)n3)c2)cc1", "unit_abbrev": "µM", "solubility kinetic": 1}

----------
test: physchem; settings: buffer, pH 7.4

{"compound": "Br.CC1(C)NC(N)=NC(=N)N1OCCCOc1ccc(Cl)cc1Cl", "logD": 3.39}
{"compound": "CCc1ccc(S(=O)(=O)Nc2cc(CN3CCN(CCC(C)C)CC3)ccc2C)cc1.O=C(O)C(F)(F)F.O=C(O)C(F)(F)F", "logD": 6.28}
{"compound": "Cc1ccc2nc(C(F)(F)F)c(C(=O)NCc3cccc(OC(C)C)c3)n2c1", "logD": 6.19}
{"compound": "COc1cc(Nc2ccccc2)ccc1NS(=O)(=O)c1c(C)noc1C", "logD": 5.53}
{"compound": "Cc1ccc(CNC(=O)c2cnn3c2NC(c2ccc(C)cc2)CC3C(F)F)cc1 (stereo not given)", "logD": 6.84}

Hey, just so you know, these numbers are from ChEMBL document CHEMBL2095176.
